Measured values drawn from patent US11464738B2 for this set.

EXPERIMENT_DESCRIPTION: Quantitative 19F NMR (QNMR) water-solubility of hydrophobic ionic liquids
Format: physicochemical
TEST_PARAMETERS: 25 °C, water, thermodynamic from solid, saturated D2O, read-out: Ionic Liquid Concentration in D2O (water-solubility)
PROPERTY_LABEL: solubility at 6 days
Field: value (include unit after the number)

solubility at 6 days in this record for C[N+](C)(CCO)CCOCCOCC[N+](C)(C)CCO [[DC-ether][2NTf2]] : 13 mM

Recorded result, C[N+](C)(CCO)CCCCCCC[N+](C)(C)CCO [[DC-7][2NTf2]] , solubility at 6 days: 10.7 mM
